- System: SK-MEL-2 melanoma
- MEASUREMENT DESCRIPTION: NCI tumour cell line growth inhibition, 48 h
QUANTITY NAME: TGI (µM)
Numbers only; they are read as µM.

In [3]: df
Out[3]:
                      smiles_representation  measure_unit  result_value
0      CCN(CC)CC(C)(C)C(=O)/C=C/c1ccc(C)cc1            µM          25.7
1  O=C(NCCNCCO)c1ccc2oc3cc4ccccc4c(=O)n3c2c1            µM          15.5

// next entry
So what's the measured TGI for this one? Nc1nc(Cl)c2ncn(Cc3ccccc3CCl)c2n1
80.6

---

- Test system: OVCAR-5 ovarian
- MEASUREMENT DESCRIPTION: NCI tumour cell line growth inhibition, 48 h
QUANTITY NAME: TGI

Worked set:
>>> print(df.to_string())
                                   compound  quantity_name  result_value
0                              CCC(=S)N(C)O            TGI      > 100 µM
1         COc1ccc(-c2nc3ccc(C)cc3o2)c(OC)c1            TGI         42 µM
2  c1ccc(-c2cc(-c3cc(-c4ccccn4)[nH]n3)n[nH]2)nc1            TGI      > 100 µM
3  CC(C)(C)SC1=CCC[C@@H](P(=O)(c2ccccc2)c2ccccc2)[C@@H]2CCC[C@@H]12            TGI       27.1 µM
4  COc1ccc(C(=O)C(C(=O)C(=O)Nc2nc3ccc(OC)cc3s2)c2ccc(OC)cc2)cc1 (centres undefined)            TGI      > 100 µM

API: value(readout= TGI, system= OVCAR-5 ovarian, query= COc1ccc(OC)c(C2CCc3cnc4nc(N)nc(N)c4c3C2)c1 (centres undefined) )
> 100 µM

API: value(readout= TGI, system= OVCAR-5 ovarian, query= Cc1ccccc1NC(=O)C(=O)Cc1nc2ccccc2s1 )
> 100 µM

API: value(readout= TGI, system= OVCAR-5 ovarian, query= Cc1ccc(S(=O)(=O)n2ccn3c(=O)cc(C)nc23)cc1 )
> 10 µM

API: value(readout= TGI, system= OVCAR-5 ovarian, query= C=CC(=O)Nc1cc2c(Nc3ccc(OCc4ccccn4)c(Cl)c3)ncnc2cc1OCCN1CCOCC1 )
> 100 µM

API: value(readout= TGI, system= OVCAR-5 ovarian, query= O=C(O)[C@@H]1C[C@@H](O)CN1 )
> 100 µM

API: value(readout= TGI, system= OVCAR-5 ovarian, query= CN(C)CCCC1(c2ccc(F)cc2)OCc2cc(-c3ccc4cc[nH]c4c3)ccc21 (centres undefined) )
4.3 µM

---

- Tested on: NCI-H23 lung
- MEASUREMENT DESCRIPTION: NCI tumour cell line growth inhibition, 48 h
QUANTITY NAME: TGI (µM)
Numbers only; they are read as µM.

Worked set:
In [3]: df
Out[3]:
                      smiles_representation  quantity_name  measure_unit  result_value
0      COc1cc2c[n+](C)c3c4ccccc4ccc3c2cc1OC            TGI            µM          14.1
1  COc1ccc2[nH]cc(/C=C3\C(=O)Nc4ccccc43)c2c1            TGI            µM          49.6
2  CC(C)(C)SC1=CCC[C@@H](P(=O)(c2ccccc2)c2ccccc2)[C@@H]2CCC[C@@H]12            TGI            µM          33.6
3  Nc1nc(Nc2ccc(Cl)cc2)sc1C(=O)c1cc2ccccc2oc1=O            TGI            µM          89.5
4           Cc1ccc(C(=O)/C=C/c2ccccc2Cl)cc1            TGI            µM          40.1
5  Cc1cccc(C)c1NC(=S)/N=C/C1=C(O)c2ccccc2C1=O            TGI            µM          59.2
6  Cc1oc2c(c1C(=O)c1ccccc1)C(=O)c1ccccc1C2=O            TGI            µM          8.36

// next entry
So what's the measured TGI for this one? O=C(C#Cc1c[nH]c(=O)[nH]c1=O)c1ccccc1
27.6

---

- Tested on: OVCAR-8 ovarian
- MEASUREMENT DESCRIPTION: NCI tumour cell line growth inhibition, 48 h
TGI values, listed per item
Numbers only; they are read as µM.

So what's the measured TGI for this one? Nc1nc(Cl)c2ncn(Cc3ccccc3CCl)c2n1
19.6

So what's the measured TGI for this one? COc1cc2c[n+](C)c3c4ccccc4ccc3c2cc1OC
16.8

So what's the measured TGI for this one? CC(=O)OC1CC(OC2C(O)CC(OC3C(O)CC(OC4CCC5(C)C(CCC6C5CC(O)C5(C)C(C7=CC(=O)OC7)CCC65O)C4)OC3C)OC2C)OC(C)C1O (centres undefined) (tested in a mixture with another compound)
0.129

So what's the measured TGI for this one? O=C(c1cccs1)c1c(C(F)(F)F)n([O-])c2cc(F)c(F)cc2[n+]1=O
5.16

So what's the measured TGI for this one? Cc1c2c(cc[n+]1Cc1ccccc1)c1ccc(OCC3CCCCC3)cc1n2CC1CCCCC1
1.35

So what's the measured TGI for this one? CC1=COC2=C(C)C(=O)C(=O)c3c(C)ccc1c32
12.4

---

TGI values, listed per item
- Tested on: SN12C renal
- MEASUREMENT DESCRIPTION: NCI tumour cell line growth inhibition, 48 h

>>> print(df.to_string())
                                   compound  tested_system  result_value
0    CC(C)C1OCC(CO)CO1 (stereo unspecified)    SN12C renal      > 100 µM
1  O=C=Nc1ccc(Cc2ccc(N=C=O)cc2)cc1 (tested in a mixture with another compound)    SN12C renal    > 25 µg/mL
2                        CSC(=S)NN=C1CCCCC1    SN12C renal       84.9 µM
3  COC(=O)c1c2c(c(C)[n+]([O-])c1C)C(=O)C(NCc1ccc(F)c(Cl)c1)=CC2=O    SN12C renal       3.66 µM
4  Cc1ccc(S(=O)(=O)C2=c3ncccc3=C3C(=O)c4ccccc4C(=O)C32)cc1 (stereo unspecified)    SN12C renal      > 100 µM

So what's the measured TGI for this one? O=C(C#Cc1c[nH]c(=O)[nH]c1=O)c1ccccc1
15.9 µM

So what's the measured TGI for this one? COc1cc2c(cc1OC)-c1c(cc(OC)c(OC)c1OC)C2=O
> 100 µM

So what's the measured TGI for this one? Cc1[nH]n(-c2ccccc2)c(=S)c1C(=O)c1ccccc1
45.1 µM

---

TGI values, listed per item
- Tested on: MDA-MB-231 breast
- MEASUREMENT DESCRIPTION: NCI tumour cell line growth inhibition, 48 h
Numbers only; they are read as µM.

In [3]: df
Out[3]:
                      smiles_representation  quantity_name  measure_unit  result_value
0  O=[N+]([O-])C(=C1Nc2ccccc2N1)C(Cl)=C(Cl)Cl            TGI            µM          90.3

// next entry
So what's the measured TGI for this one? Clc1ccc2c(NCCNc3nc(-c4ccccc4)cc(-c4ccccc4)n3)ccnc2c1
3.44

---

TGI values, listed per item
- Test system: HOP-62 NSCLC
- MEASUREMENT DESCRIPTION: NCI tumour cell line growth inhibition, 48 h
Numbers only; they are read as µM.

COMPOUND	TESTED SYSTEM	TGI / µM
N#CC1=C(N)Oc2c(sc3c(F)cccc23)C1c1ccc([N+](=O)[O-])cc1 (stereo not given)	HOP-62 NSCLC	1.79
CCC12C=CCN3CC[C@]4(C(=C(C(=O)OC)[C@@H]1Nc1ccn(C5OC(COC(C)=O)C(OC(C)=O)C5OC(C)=O)c(=O)n1)Nc1ccccc14)C32 (stereo not given in full)	HOP-62 NSCLC	8.83
Cc1cccc(NC(=O)CC2C(=O)Nc3ccccc3S2(=O)=O)c1C (stereo not given)	HOP-62 NSCLC	52.8

So what's the measured TGI for this one? COc1ccc(OC)c(-c2nc3sccn3c2/C=C2/C(=O)Nc3ccccc32)c1
4.41

So what's the measured TGI for this one? C[C@]12CC[C@@H]3c4ccc(O)cc4CC[C@H]3[C@@H]1CC[C@@H]2NS(=O)(=O)c1cccc(Br)c1
22.5
